# protocol description: Percentage unbound in 10% human plasma
# Assay type: ADME, cell-free
Binarize fraction unbound at 0.09; below is y, at or above is n.

Here's what some known entries look like.
fraction unbound under 0.09? Item: Cc1nc(C2CCN(C(=O)[C@@H]3C[C@@](C)(N(C)C)C[C@H]3c3ccc(F)cc3F)CC2)n(-c2cc(Cl)ccc2Cl)n1 n

What about Cc1cc(C2CCN(C(=O)[C@@H]3C[C@@](C)(N)C[C@H]3c3ccc(F)cc3F)CC2)n(-c2ccc(F)c(Cl)c2)n1 ? y

// repeat for Cc1nc(C2CCN(C(=O)[C@@H]3C[C@@](C)(N)C[C@H]3c3ccc(F)cc3F)CC2)n(-c2cc(Cl)ccc2Cl)n1 and report n

Input Cc1nc(C2CCN(C(=O)[C@@H]3C[C@@](C)(N(C)C)C[C@H]3c3ccc(F)cc3F)CC2)n(-c2ccc(Cl)c(C)c2)n1 y

Thanks! And Cc1nc(C2CCN(C(=O)[C@@H]3C[C@@H](N(C)C)C[C@H]3c3ccc(F)cc3F)CC2)n(-c2ccc(Cl)c(C)c2)n1 ? n

Proceed to the following item.
Say whether its fraction unbound is strictly beneath 0.09. Entry: CN(C)[C@]1(C)C[C@H](C(=O)N2CCC(c3ccnn3-c3ccc(F)c(Cl)c3)CC2)[C@@H](c2ccc(F)cc2F)C1 n

* * *

# protocol description: Percentage unbound in 10% human plasma
# Assay type: ADME, cell-free
Each item that follows carries a reported fraction unbound.
Number only, no unit.

Can you look up the measured fraction unbound of Cc1cc(C2CCN(C(=O)[C@@H]3C[C@@](C)(N)C[C@H]3c3ccc(F)cc3F)CC2)n(-c2cc(Cl)ccc2Cl)n1 for me? 0.071

And what about the compound Cc1nc(C2CCN(C(=O)[C@@H]3C[C@@](C)(N)C[C@H]3c3ccc(F)cc3F)CC2)n(-c2ccc(F)c(Cl)c2)n1 ? 0.205

Proceed to CN(C)[C@@]1(C)C[C@H](C(=O)N2CCC(c3ccnn3-c3ccc(F)c(Cl)c3)CC2)[C@@H](c2ccc(F)cc2F)C1 0.104

Ok, now Cc1cc(C2CCN(C(=O)[C@@H]3C[C@@](C)(N(C)C)C[C@H]3c3ccc(F)cc3F)CC2)n(-c2cc(Cl)ccc2Cl)n1 0.087

More entries:
Consider the compound shown here: Cc1nc(C2CCN(C(=O)[C@@H]3C[C@@](C)(N)C[C@H]3c3ccc(F)cc3F)CC2)n(-c2ccc(Cl)c(C)c2)n1 What is its recorded fraction unbound? 0.076
